Recorded values, source paper PMC7826789.

Test system: GSK3A;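 further: KINOMEscan scanMAX binding as percent activity remaining versus control; lower means stronger binding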
Conditions: Compound Concentration (nM):1000
Think of 90% as a floor: if Percent Control stands on it or above, it is YES; beneath it, NO.

compound="Cl.O=C(O[C@H]1CN[C@H](C#Cc2cc3ncnc(Nc4ccc5c(cnn5Cc5ccccc5)c4)c3s2)C1)N1CCOCC1 [GSK200398A]" assigned_category=YES
compound=COc1ccc2cc(-c3c(-c4ccncc4)nc(-c4ccc(S(C)(=O)=O)cc4C)n3C)ccc2c1 assigned_category=YES
compound="NS(=O)(=O)c1ccc(N/N=C2\\C(=O)Nc3ccc(C(=O)NCc4ccncc4)cc32)cc1 [GW300657X]" assigned_category=NO
compound="COC(=O)Nc1nc2ccc(Oc3ccc(NC(=O)Nc4cc(C(F)(F)F)ccc4F)cc3)cc2s1.Cl [GW693917A]" assigned_category=YES
compound="COc1cc(C=NNc2ncnc3c2cnn3-c2ccccc2)ccc1O [GW513184X]" assigned_category=NO
compound="NS(=O)(=O)c1ccc(N/N=C2\\C(=O)Nc3ccc(C(=O)NCCc4c[nH]cn4)cc32)cc1 [GW300660X]" assigned_category=NO
compound="CC(C)COC(=O)c1ccc2c(c1)/C(=C/Nc1ccc(S(N)(=O)=O)cc1)C(=O)N2 [GW416981X]" assigned_category=NO
compound="COc1cc(N2CCN(C(C)C)CC2)ccc1Nc1nc(Nc2ccc(F)cc2C(=O)NC[C@@H](O)CO)c2cc[nH]c2n1 [GSK1392956A]" assigned_category=YES
